Test system: Fibroblast
measurement-description: Multiplex assay against human fibroblast
Type: toxicity, cell-based
test-context: 24 h, 10 µM, compound concentration 10 uM, replicate 1
Non-standard residues stand in square brackets, D forms with d. Residues, ends and D or L forms follow the SMILES beside them.
This listing pairs compounds with measured Population Normal (%).
assay-endpoint: Population Normal (%)

{"compound": "Cc1cc(=O)n(C)c2cc(N3C(=O)CC[C@H](NS(=O)(=O)CC(C)C)[C@H]3c3ccc(Cl)cc3)ccc12", "system": "Fibroblast", "assay-endpoint": "Population Normal (%)", "reported-value": 90}
{"compound": "COc1cc(Nc2ncc3c(n2)-c2ccc(Cl)cc2C(c2c(F)cccc2OC)=NC3)ccc1C(=O)O", "system": "Fibroblast", "assay-endpoint": "Population Normal (%)", "reported-value": 86}
{"compound": "CC(F)(F)CN1CCOc2c(nn(-c3ccccc3Cl)c2-c2ccc(Cl)cc2)C1=O", "system": "Fibroblast", "assay-endpoint": "Population Normal (%)", "reported-value": 99}
{"compound": "CCn1c(-c2nc3cc(C(=O)N4CCCC(N)C4)ccc3n2C)cc2ccccc21.Cl (stereo not drawn)", "system": "Fibroblast", "assay-endpoint": "Population Normal (%)", "reported-value": 96}
{"compound": "COc1ccc2c(c1OCc1ccccc1)C[C@@H](C(=O)O)N(C(=O)C(c1ccccc1)c1ccccc1)C2", "system": "Fibroblast", "assay-endpoint": "Population Normal (%)", "reported-value": 97}
{"compound": "CCCCC[C@H](O)/C=C/[C@H]1[C@H](O)CC(=O)[C@@H]1CCCCCCC(=O)O", "system": "Fibroblast", "assay-endpoint": "Population Normal (%)", "reported-value": 97}
{"compound": "CC(C)C[C@@H]1NC(=O)[C@@H](C(C)C)NC(=O)[C@@H]2CCCN2C(=O)[C@@H](CC(=O)O)NC(=O)[C@@H](Cc2c[nH]c3ccccc23)NC1=O [BQ-123] (cyclo(L[dW][dD]P[dV]))", "system": "Fibroblast", "assay-endpoint": "Population Normal (%)", "reported-value": 91}
{"compound": "COc1ccc2[nH]c(I)c(CCNC(C)=O)c2c1", "system": "Fibroblast", "assay-endpoint": "Population Normal (%)", "reported-value": 97}

* * *

Test system: Fibroblast
measurement-description: Multiplex assay against human fibroblast
Assay type: toxicity, cell-based
test-context: 24 h, 1 µM, compound concentration 1 uM, replicate 2
# label = T if Population Apoptotic (%) < 50% else F

{"smiles-representation": "COc1cc(Nc2ncc3c(n2)-c2ccc(Cl)cc2C(c2c(F)cccc2OC)=NC3)ccc1C(=O)O", "answer-label": "T"}
{"smiles-representation": "N[C@](CC1c2ccccc2Oc2ccccc21)(C(=O)O)[C@H]1C[C@@H]1C(=O)O", "answer-label": "T"}
{"smiles-representation": "Cc1cc(-c2ccc3c(c2)CC[C@H]3N2CC3(CCN(C(=O)Cc4cn5cc(C)sc5n4)CC3)C2)ncn1", "answer-label": "T"}
{"smiles-representation": "Cc1cc(O)c(-c2ccc([C@@H](C)CN(C)C)cc2)c2c1[nH]c(=O)c1sccc12", "answer-label": "F"}
{"smiles-representation": "COC(c1ccccc1)(c1ccccc1)[C@H](Oc1nc(C)cc(C)n1)C(=O)O", "answer-label": "T"}
{"smiles-representation": "C=CCN1C[C@H](C(=O)N(CCCN(C)C)C(=O)NCC)C[C@@H]2c3cccc4[nH]cc(c34)C[C@H]21", "answer-label": "T"}

Measured values drawn from ChEMBL document CHEMBL5058577 for this set.
